tested on: LNCaP; experiment: WST-1 proliferation assay, LNCaP; format: cell-based; settings: Homo sapiens; Prostate LNCaP, 72 h; read-out: Anti-proliferative activity IC50 (μM) ± SD
TEST READOUT: IC50 (µM)

1) O=C(NC(=S)Nc1cccc(-c2nc3ccccc3[nH]2)c1)c1ccc2c(c1)OCCO2; 1.3
2) Cc1ccc(-c2nc3ccccc3[nH]2)cc1NC(=S)NC(=O)c1ccc2c(c1)OCCO2; 1.4

====

Target: NRP-1 (Homo sapiens)
Sequence (O14786 22-644 isoform O14786-2 limits assumed): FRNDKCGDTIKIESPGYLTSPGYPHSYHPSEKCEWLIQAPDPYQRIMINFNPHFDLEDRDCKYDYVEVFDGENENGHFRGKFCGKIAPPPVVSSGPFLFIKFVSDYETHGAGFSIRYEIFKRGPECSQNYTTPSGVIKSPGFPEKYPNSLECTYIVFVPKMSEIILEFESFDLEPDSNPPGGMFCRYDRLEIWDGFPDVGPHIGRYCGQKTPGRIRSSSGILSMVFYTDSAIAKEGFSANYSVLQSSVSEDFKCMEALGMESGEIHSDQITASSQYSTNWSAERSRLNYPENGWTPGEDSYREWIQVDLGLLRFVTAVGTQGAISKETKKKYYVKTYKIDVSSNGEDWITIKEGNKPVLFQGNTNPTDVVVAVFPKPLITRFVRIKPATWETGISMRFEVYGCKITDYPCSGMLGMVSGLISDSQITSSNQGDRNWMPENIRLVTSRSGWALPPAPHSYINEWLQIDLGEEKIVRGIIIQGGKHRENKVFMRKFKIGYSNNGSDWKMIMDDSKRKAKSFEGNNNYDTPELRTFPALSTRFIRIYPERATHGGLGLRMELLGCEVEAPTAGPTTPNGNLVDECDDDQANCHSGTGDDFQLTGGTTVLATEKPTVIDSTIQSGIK
pIC50: −log10 of the molar value.
TEST READOUT: pIC50

1. O=C(NC(=S)Nc1cccc(-c2nc3ccccc3[nH]2)c1)c1ccc2c(c1)OCCO2; 4.47
2. Cc1ccc(-c2nc3ccccc3[nH]2)cc1NC(=S)NC(=O)c1ccc2c(c1)OCCO2; 4.42
